# Test system: RAW264.7
# Procedure text: Antiinflammatory activity in mouse RAW264.7 cells assessed as inhibition of LPS-stimulated nitric oxide production pretreated for 2 hrs followed by LPS-stimulation measured after 20 hrs by Griess assay
# Format: functional, cell-based
Result type: IC50 (µM)
Supply the numeric figure in µM, leaving out any unit text.

What value of IC50 has been recorded for this entry: CNC(=N)NCCC[C@H](N)C(=O)O [TILARGININE]
30.9

Query: IC50; subject: COC1=C(C)C2=C(C(=O)C1(C)C)[C@H](C(C)C)C[C@@]1(CC[C@@]3(C(C)C)C[C@@H]13)O2 (racemic)
1.8

Which IC50 value is on record for COC1=C(C)C(=O)[C@@]2(CC=C(CCC=C(C)C)C[C@H]2C(C)C)C(=O)C1(C)C (racemic) ?
2.07

* * *

# Test system: RAW264.7
# Procedure text: Antiinflammatory activity in mouse RAW264.7 cells assessed as inhibition of LPS-stimulated nitric oxide production pretreated for 2 hrs followed by LPS-stimulation measured after 20 hrs by Griess assay
# Assay type: functional, cell-based
Result type: IC50 (µM)
Supply the numeric figure in µM, leaving out any unit text.

If you can, please state the reported IC50 value of COC1=C(C)C(=O)C2=C(O[C@@]3(CC[C@]45[C@H]([C@H](C(C)C)CC[C@H]4C)[C@@H]35)C[C@@H]2C(C)C)C1(C)C .
15.2

Which IC50 is listed for COC1=C(C)C(=O)C2=C(O[C@]3(CC[C@]45[C@H]([C@H](C(C)C)CC[C@H]4C)[C@@H]35)C[C@H]2C(C)C)C1(C)C ?
30.5

Which value of IC50 has been reported for COC1=C(C)C(=O)C2=C(O[C@]3(CC[C@@H]4C[C@@H]3C4(C)C)C[C@@H]2C(C)C)C1(C)C in the records?
3.7

Please report the recorded IC50 for COC1=C(C)C2=C(C(=O)C1(C)C)[C@@H](C(C)C)C[C@]1(CC[C@@]3(C(C)C)C[C@@H]13)O2 .
0.36

// IC50 lookup, key: COC1=C(C)C(=O)[C@]2(CC(CCC=C(C)C)=CC[C@H]2C(C)C)C(=O)C1(C)C (racemic)
6.5

Please look up its IC50: COC1=C(C)C(=O)C2=C(O[C@@]3(C=C4[C@H](C(C)C)CC[C@@H](C)[C@H]4CC3)C[C@@H]2C(C)C)C1(C)C
18.8

Reference source for all entries: ChEMBL document CHEMBL4190293
